// reported reactive ratios relative to MA per item
Tested on: monoclonal antibody MA-7 (FERM BP-1494)
ASSAY_EXPLANATION: Assay test II: competitive ELISA on immobilised MA-BSA, reactivities of the monoclonal antibody with various compounds
Format: binding, mouse
RUN_PARAMETERS: monoclonal antibody MA-7; compound diluted at multiple stages, MA = 1
Experimental: First, in each analytic well of a 96-well U-bottomed ELISA plate was apportioned each 50 µl of an MA-BSA solution (2 µg/ml, dissolved in 0.05 M carbonate buffer of pH 9.8) which is the antigen for analysis prepared in Example 1, and the mixture was left to stand overnight at 4 °C (by such treatment, MA-BSA was adsorbed onto the surface of each analytic well). […]

CC(N)C(O)c1ccccc1 (centres unmarked) [norEP, norephedrin] ... <0.001
CC(N)C(O)c1ccc(O)cc1 (centres unmarked) [OH-norEP, p-hydroxynorephedrin] ... <0.001
CN[C@@H](C)[C@H](O)c1ccccc1 [EP, ephedrin] ... 0.0018
CNC(C)Cc1ccccc1OC (centres unmarked) [MPA, methoxyphenamine] ... 0.023
CC(N)Cc1ccc(O)cc1 (centres unmarked) [OH-AP, p-hydroxyamphetamine] ... <0.001
CC(C)(N)Cc1ccccc1 [PT, phentermine] ... 0.042
CC([C@H](O)c1ccccc1)N(C)C (some centres unmarked) [ME, methylephedrin] ... 0.022
CNC(C)Cc1ccc(O)cc1 (centres unmarked) [OH-MA, p-hydroxymethamphetamine] ... 0.0039
CN[C@@H](C)Cc1ccccc1 [MA, methamphetamine] ... 1
c1ccc(CNCCNCc2ccccc2)cc1 [DBED, N,N′-dibenzylethylenediamine] ... 0.17

From here, focus on the item given below.
Exercise: Assign reactive ratios relative to MA to the following record: CNC(C)C(O)c1ccc(O)cc1 (centres unmarked) [OH-EP, p-hydroxyephedrine]
Solution: <0.001
